TARGET_OR_TEST_SYSTEM: recombinant human mitochondrial ALDH2 (hALDH2) (Homo sapiens)
Sequence (P05091 18-517): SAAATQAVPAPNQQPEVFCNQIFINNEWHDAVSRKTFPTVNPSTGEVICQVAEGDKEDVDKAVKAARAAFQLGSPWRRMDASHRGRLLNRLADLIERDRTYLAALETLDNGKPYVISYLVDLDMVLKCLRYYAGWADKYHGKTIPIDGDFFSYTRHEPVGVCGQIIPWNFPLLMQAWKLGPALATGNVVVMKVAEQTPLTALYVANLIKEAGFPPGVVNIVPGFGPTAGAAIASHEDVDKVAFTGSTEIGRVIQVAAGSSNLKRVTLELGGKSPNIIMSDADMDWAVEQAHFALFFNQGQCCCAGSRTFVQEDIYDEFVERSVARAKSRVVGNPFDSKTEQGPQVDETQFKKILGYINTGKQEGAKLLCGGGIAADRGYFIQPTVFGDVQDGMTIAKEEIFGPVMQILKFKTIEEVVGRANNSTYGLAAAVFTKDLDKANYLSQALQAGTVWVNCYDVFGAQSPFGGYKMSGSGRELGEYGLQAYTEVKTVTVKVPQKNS
EXPERIMENTAL_CONTEXT: read-out: KI (Morrison); Morrison equation; ALDH2 4.43 μM
pKi: −log10 of the molar value.
VALUE_TYPE: pKi

Enquiry: Suppose we examine the compound CC1=C(/C=C/C(C)=C/C=C/C(C)=C/C(=O)C(Cl)Cl)C(C)(C)CCC1 ; what pKi value has been reported?
Return: < 4.00
